These data points were gathered from patent US8178077B2.

- targetEntity: FLJ39196 clone-derived protein (human neurocalcin δ) (Homo sapiens)
- Construct: A human full-length cDNA clone was expressed as a protein with an N-terminal His tag; His tag (N); made in house; host or cells: Escherichia coli BL21star(DE3)pLysS (pDEST17 Gateway expression plasmid)
- measurementDescription: SEC/MS interaction analysis (size exclusion spin column and mass analysis) with FLJ39196 clone-derived protein
- Format: binding
- particulars: protein 47.5 μM, compound 250 μM
readoutKind: spectral intensity of the compound in the SEC spin column filtrate (protein fraction)

> print(dat)
                                   compound  recordedmeasurement
1  CC(C)/N=c1\cc2n(-c3ccc(Cl)cc3)c3ccccc3nc-2cc1Nc1ccc(Cl)cc1            411373516
2  COC(=O)[C@H]1[C@H]2C[C@@H]3c4[nH]c5cc(OC)ccc5c4CCN3C[C@H]2C[C@@H](OC(=O)/C=C/c2cc(OC)c(OC)c(OC)c2)[C@@H]1OC           1469409087
3       CN(C)CC/C=C1/c2ccccc2Sc2ccc(Cl)cc21            433637183
4  CCCCCCCCNC(C)C(O)c1ccc(SC(C)C)cc1 (stereo not shown)            742015343

* * *

- targetEntity: FLJ39196 clone-derived protein (human neurocalcin δ) (Homo sapiens, UniProt P61601)
- Construct: A human full-length cDNA clone was expressed as a protein with an N-terminal His tag; His tag (N); made in house; host or cells: Escherichia coli BL21star(DE3)pLysS (pDEST17 Gateway expression plasmid)
- measurementDescription: SEC/MS interaction analysis (size exclusion spin column and mass analysis) with FLJ39196 clone-derived protein
- Type: binding
- particulars: protein 47.5 μM, compound 1 μM
readoutKind: spectral intensity of the compound in the SEC spin column filtrate (protein fraction)

> print(dat)
                                    compound  recordedmeasurement
 1      CCc1cc2c(s1)N(C)C(=O)CN=C2c1ccccc1Cl              9022620
 2  OCCN1CCN(CC/C=C2/c3ccccc3Sc3ccc(C(F)(F)F)cc32)CC1 [Flupentixol cis-(Z)]             54783295
 3  NS(=O)(=O)c1cc2c(cc1Cl)N=C(CSCc1ccccc1)NS2(=O)=O [Benzthiazide]               249695
 4  CCOC(=O)Oc1c(OC)cc(C(=O)O[C@@H]2C[C@@H]3CN4CCc5c([nH]c6cc(OC)ccc56)[C@H]4C[C@@H]3[C@H](C(=O)OC)[C@H]2OC)cc1OC             70443152
 5          CN1CCC(=C2c3ccccc3Sc3ccccc32)CC1              2762592
 6  CC(C)COCC(CN(Cc1ccccc1)c1ccccc1)N1CCCC1 (stereo not shown)              7866658
 7  c1ccc(-c2ccc(C(c3ccccc3)n3ccnc3)cc2)cc1 (stereo not shown)             33844567
 8  Clc1ccc(C(OCCN2CCCCC2)c2ccccc2)cc1 (stereo not shown)              4085344
 9  CC(C)/N=c1\cc2n(-c3ccc(Cl)cc3)c3ccccc3nc-2cc1Nc1ccc(Cl)cc1              2399851
10   CCc1oc2ccccc2c1C(=O)c1cc(Br)c(O)c(Br)c1               412022

* * *

- targetEntity: FLJ39196 clone-derived protein (human neurocalcin δ) (Homo sapiens)
- Construct: A human full-length cDNA clone was expressed as a protein with an N-terminal His tag; His tag (N); made in house; host or cells: Escherichia coli BL21star(DE3)pLysS (pDEST17 Gateway expression plasmid)
- measurementDescription: SEC/MS interaction analysis (size exclusion spin column and mass analysis) with FLJ39196 clone-derived protein
- Type: binding
- particulars: protein 47.5 μM, compound 10 μM
readoutKind: spectral intensity of the compound in the SEC spin column filtrate (protein fraction)

> print(dat)
                                   compound  recordedmeasurement
1  CC(O)(CS(=O)(=O)c1ccc(F)cc1)C(=O)Nc1ccc(C#N)c(C(F)(F)F)c1 (stereo not drawn) [Bicaltamide]              4168309
2  NS(=O)(=O)c1cc2c(cc1Cl)N=C(CSCc1ccccc1)NS2(=O)=O [Benzthiazide]              1261413
3  Cc1cc(-c2ccccc2)nnc1NCCN1CCOCC1 [Minaprine]             49245292
4  CN1CCC(=C2c3ccccc3Sc3ccccc32)CC1 [Pimethixene]              9271060
5  CC(NCCC(c1ccccc1)c1ccccc1)c1ccccc1 (stereo not drawn) [Fendiline]             26691498
6  CN(C)CC/C=C1/c2ccccc2Sc2ccc(Cl)cc21 [Chlorprothixene]             52145413

* * *

- targetEntity: FLJ39196 clone-derived protein (human neurocalcin δ) (Homo sapiens, UniProt P61601)
- Construct: A human full-length cDNA clone was expressed as a protein with an N-terminal His tag; His tag (N); made in house; host or cells: Escherichia coli BL21star(DE3)pLysS (pDEST17 Gateway expression plasmid)
- measurementDescription: SEC/MS interaction analysis (size exclusion spin column and mass analysis) with FLJ39196 clone-derived protein
- Assay type: binding
- particulars: protein 23.75 μM, compound 100 μM
Structures can show the parent of a compound that is named as a salt.
spectral intensity of the compound in the SEC spin column filtrate (protein fraction) for assorted molecules
readoutKind: spectral intensity of the compound in the SEC spin column filtrate (protein fraction)

> print(dat)
                                    molecule  recordedmeasurement
 1       CN(C)CC/C=C1/c2ccccc2Sc2ccc(Cl)cc21            104338961
 2   CCc1oc2ccccc2c1C(=O)c1cc(Br)c(O)c(Br)c1             10722991
 3  CC(NCCC(c1ccccc1)c1ccccc1)c1ccccc1 (stereo not shown)            118321460
 4      CCc1cc2c(s1)N(C)C(=O)CN=C2c1ccccc1Cl            283452799
 5  OCCN1CCN(CC/C=C2/c3ccccc3Sc3ccc(C(F)(F)F)cc32)CC1 [Flupentixol cis-(Z)]            474717521
 6  CCOC(=O)Oc1c(OC)cc(C(=O)O[C@@H]2C[C@@H]3CN4CCc5c([nH]c6cc(OC)ccc56)[C@H]4C[C@@H]3[C@H](C(=O)OC)[C@H]2OC)cc1OC            465474678
 7  CCCCCCCCNC(C)C(O)c1ccc(SC(C)C)cc1 (stereo not shown)            163940015
 8  CC(O)(CS(=O)(=O)c1ccc(F)cc1)C(=O)Nc1ccc(C#N)c(C(F)(F)F)c1 (stereo not shown) [Bicaltamide]             18349511
 9          CN1CCC(=C2c3ccccc3Sc3ccccc32)CC1            121577640
10  c1ccc(-c2ccc(C(c3ccccc3)n3ccnc3)cc2)cc1 (stereo not shown)             60323012
11           Cc1cc(-c2ccccc2)nnc1NCCN1CCOCC1            727082711
12  Clc1ccc(C(OCCN2CCCCC2)c2ccccc2)cc1 (stereo not shown)            218420294
13  NS(=O)(=O)c1cc2c(cc1Cl)N=C(CSCc1ccccc1)NS2(=O)=O [Benzthiazide]              9348303
14  O=C(c1ccc(OCCN2CCCCC2)cc1)c1c(-c2ccc(O)cc2)sc2cc(O)ccc12 [Raloxifene hydrochloride]            124641622
15    O=C1CN=C(c2ccccc2)c2cc(Cl)ccc2N1CC1CC1            258681345
16  C[C@]12Cc3c[nH]nc3C[C@@H]1CC[C@@H]1[C@@H]2CC[C@@]2(C)[C@H]1CC[C@]2(C)O            127989356

* * *

Reported spectral intensity of the compound in the SEC spin column filtrate (protein fraction) values follow for various compounds
- targetEntity: FLJ39196 clone-derived protein (human neurocalcin δ) (Homo sapiens)
- Construct: A human full-length cDNA clone was expressed as a protein with an N-terminal His tag; His tag (N); made in house; host or cells: Escherichia coli BL21star(DE3)pLysS (pDEST17 Gateway expression plasmid)
- measurementDescription: SEC/MS interaction analysis (size exclusion spin column and mass analysis) with FLJ39196 clone-derived protein
- Format: binding
- particulars: protein 23.75 μM, compound 10 μM
Counter-ions that a name gives are not always drawn.
readoutKind: spectral intensity of the compound in the SEC spin column filtrate (protein fraction)

compound	recordedMeasurement
CCOC(=O)Oc1c(OC)cc(C(=O)O[C@@H]2C[C@@H]3CN4CCc5c([nH]c6cc(OC)ccc56)[C@H]4C[C@@H]3[C@H](C(=O)OC)[C@H]2OC)cc1OC [Syrosingopine]	101347281
CCCCCCCCNC(C)C(O)c1ccc(SC(C)C)cc1 (stereo not drawn) [Suloctidil]	7828150
CN1CCC(=C2c3ccccc3Sc3ccccc32)CC1 [Pimethixene]	5737072
O=C1CN=C(c2ccccc2)c2cc(Cl)ccc2N1CC1CC1 [prazepam]	46660512
CCc1oc2ccccc2c1C(=O)c1cc(Br)c(O)c(Br)c1 [Benzbromarone]	1258120
CC(C)/N=c1\cc2n(-c3ccc(Cl)cc3)c3ccccc3nc-2cc1Nc1ccc(Cl)cc1 [clofazimine]	15886830
CC(C)COCC(CN(Cc1ccccc1)c1ccccc1)N1CCCC1 (stereo not drawn) [Bepridil]	35655439
C[C@]12Cc3c[nH]nc3C[C@@H]1CC[C@@H]1[C@@H]2CC[C@@]2(C)[C@H]1CC[C@]2(C)O [stanozolol]	10223886
O=C(c1ccc(OCCN2CCCCC2)cc1)c1c(-c2ccc(O)cc2)sc2cc(O)ccc12 [Raloxifene hydrochloride]	6024709
